Data provenance is patent US20210255193A1.

Reported isoTOP-ABPP reactivity ratio at lysine Q9H3P7_K117 values for a set of compounds
- STUDY TARGET: ACBD3 Golgi resident protein GCP60 (Homo sapiens, UniProt Q9H3P7)
- Construct: isoTOP-ABPP experiments performed in cell lysates (in vitro); endogenous in cells; host or cells: soluble proteome of human cancer cell lines (MDA-MB-231; Ramos and Jurkat also prepared)
- Sequence (Q9H3P7 whole entry): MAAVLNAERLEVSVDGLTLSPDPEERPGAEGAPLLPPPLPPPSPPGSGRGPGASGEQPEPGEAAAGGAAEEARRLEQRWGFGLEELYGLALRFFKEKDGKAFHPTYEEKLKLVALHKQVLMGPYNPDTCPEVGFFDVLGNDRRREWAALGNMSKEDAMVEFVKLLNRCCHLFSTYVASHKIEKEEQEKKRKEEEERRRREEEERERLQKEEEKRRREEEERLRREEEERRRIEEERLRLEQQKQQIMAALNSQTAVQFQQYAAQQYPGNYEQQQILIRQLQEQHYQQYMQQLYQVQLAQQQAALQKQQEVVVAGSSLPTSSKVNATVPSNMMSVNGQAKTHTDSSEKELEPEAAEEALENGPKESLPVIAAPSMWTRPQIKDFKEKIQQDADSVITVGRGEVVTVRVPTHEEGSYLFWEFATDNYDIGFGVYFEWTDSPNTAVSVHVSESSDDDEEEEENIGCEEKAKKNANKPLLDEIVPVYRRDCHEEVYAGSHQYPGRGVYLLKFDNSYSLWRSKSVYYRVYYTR
- ASSAY REMARKS: competitive isoTOP-ABPP
- Format: binding
- Parameters: key: R = MS1 peak area ratio, DMSO (heavy) / compound-treated (light)
- CONDITIONS: 50 uM, 231 sol, in vitro
MEASUREMENT LABEL: isoTOP-ABPP reactivity ratio at lysine Q9H3P7_K117

{"COMPOUND": "O=C(CCc1cn(-c2ccccc2)nc1-c1ccccc1)Oc1ccc([N+](=O)[O-])cc1[N+](=O)[O-]", "RESULT": 1.0}
{"COMPOUND": "O=C(Oc1ccc([N+](=O)[O-])cc1[N+](=O)[O-])c1cc(C(F)(F)F)cc(C(F)(F)F)c1", "RESULT": 1.1}
{"COMPOUND": "O=C(Oc1c(F)c(F)c(F)c(F)c1F)c1ccc2ccccc2n1", "RESULT": 1.7}
{"COMPOUND": "COc1cc(CCC(=O)Oc2ccc([N+](=O)[O-])cc2[N+](=O)[O-])cc(OC)c1OC", "RESULT": 1.1}
{"COMPOUND": "O=C(Oc1ccc([N+](=O)[O-])cc1[N+](=O)[O-])C(c1ccccc1)c1ccccc1 [fragment 30, 2,4-Dinitrophenyl 2,2-diphenylacetate]", "RESULT": 1.7}
{"COMPOUND": "O=C(CN1C(=O)c2ccccc2C1=O)Oc1c(F)c(F)c(F)c(F)c1F", "RESULT": 1.9}

----------
- STUDY TARGET: KPNA2 Importin subunit alpha-2 (Homo sapiens, UniProt P52292)
- Construct: isoTOP-ABPP experiments performed in cell lysates (in vitro); endogenous in cells; host or cells: soluble proteome of human cancer cell lines (MDA-MB-231, Ramos, Jurkat)
- ASSAY REMARKS: competitive isoTOP-ABPP
- Type: binding
- CONDITIONS: 50 uM, 231 sol, in vitro
Reported isoTOP-ABPP reactivity ratio at lysine P52292_K459 values for a set of compounds
MEASUREMENT LABEL: isoTOP-ABPP reactivity ratio at lysine P52292_K459

{"COMPOUND": "O=C(CCc1coc2cc(F)ccc2c1=O)Oc1c(F)c(F)c(F)c(F)c1F", "RESULT": 8.2}
{"COMPOUND": "O=C(Oc1c(F)c(F)c(F)c(F)c1F)c1ccc2ccccc2n1", "RESULT": 1.3}
{"COMPOUND": "O=C(Oc1ccc([N+](=O)[O-])cc1[N+](=O)[O-])c1cc(C(F)(F)F)cc(C(F)(F)F)c1", "RESULT": 1.3}
{"COMPOUND": "O=C(Oc1ccc([N+](=O)[O-])cc1[N+](=O)[O-])C(c1ccccc1)c1ccccc1 [fragment 30, 2,4-Dinitrophenyl 2,2-diphenylacetate]", "RESULT": 4.3}
{"COMPOUND": "O=C(Oc1c(F)c(F)c(F)c(F)c1F)C1CCN(C(=O)OCc2ccccc2)CC1", "RESULT": 1.2}
{"COMPOUND": "CCn1cc(C(=O)Oc2c(F)c(F)c(F)c(F)c2F)c(=O)c2ccc(C)nc21", "RESULT": 1.3}

----------
Reported isoTOP-ABPP ratio (R) at liganded lysine Q13617_K489 values for a set of molecules
- STUDY TARGET: CUL2 Cullin-2 (Homo sapiens, UniProt Q13617)
- Construct: isoTOP-ABPP experiments performed in cell lysates (in vitro); endogenous in cells; host or cells: soluble proteome of human cancer cell lines (MDA-MB-231, Ramos, Jurkat)
- Sequence (Q13617 whole entry): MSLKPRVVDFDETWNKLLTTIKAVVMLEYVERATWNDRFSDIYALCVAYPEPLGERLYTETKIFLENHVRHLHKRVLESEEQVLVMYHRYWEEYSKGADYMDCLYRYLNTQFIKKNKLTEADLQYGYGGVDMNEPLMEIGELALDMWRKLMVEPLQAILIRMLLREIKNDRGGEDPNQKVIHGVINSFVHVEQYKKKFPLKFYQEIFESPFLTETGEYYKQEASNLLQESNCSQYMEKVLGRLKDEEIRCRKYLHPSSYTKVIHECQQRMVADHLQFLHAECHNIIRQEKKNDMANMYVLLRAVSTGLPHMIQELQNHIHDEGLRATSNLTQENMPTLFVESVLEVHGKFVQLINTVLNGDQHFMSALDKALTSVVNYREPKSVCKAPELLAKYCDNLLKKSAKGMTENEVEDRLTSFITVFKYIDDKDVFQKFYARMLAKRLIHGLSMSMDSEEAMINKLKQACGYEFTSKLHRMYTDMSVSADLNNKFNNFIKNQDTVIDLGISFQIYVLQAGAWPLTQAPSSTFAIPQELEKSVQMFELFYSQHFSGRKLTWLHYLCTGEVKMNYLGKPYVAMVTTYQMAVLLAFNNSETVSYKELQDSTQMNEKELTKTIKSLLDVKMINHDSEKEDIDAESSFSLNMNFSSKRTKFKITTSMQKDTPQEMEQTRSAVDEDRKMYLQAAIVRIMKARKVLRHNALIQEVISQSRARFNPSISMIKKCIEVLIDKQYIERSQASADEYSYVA
- ASSAY REMARKS: competitive isoTOP-ABPP
- Assay type: binding
- CONDITIONS: 50 uM, in vitro, sol, 231
MEASUREMENT LABEL: isoTOP-ABPP ratio (R) at liganded lysine Q13617_K489

{"MOLECULE": "O=C(Oc1ccc([N+](=O)[O-])cc1[N+](=O)[O-])C1CCN(C(=O)OCc2ccccc2)CC1", "RESULT": 1.1}
{"MOLECULE": "O=C(CCc1coc2cc(F)ccc2c1=O)Oc1ccc([N+](=O)[O-])cc1[N+](=O)[O-]", "RESULT": 1.0}
{"MOLECULE": "O=C(Oc1ccc([N+](=O)[O-])cc1[N+](=O)[O-])c1ccc(-c2ccccc2)cc1", "RESULT": 1.0}
{"MOLECULE": "CC(=O)Oc1ccc([N+](=O)[O-])cc1[N+](=O)[O-] [fragment 43, 2,4-Dinitrophenyl acetate]", "RESULT": 1.2}
{"MOLECULE": "O=C(Oc1ccc([N+](=O)[O-])cc1[N+](=O)[O-])c1ccccc1Nc1cccc(C(F)(F)F)c1", "RESULT": 20.0}
{"MOLECULE": "O=C(Oc1ccc([N+](=O)[O-])cc1[N+](=O)[O-])c1ccc2ccccc2n1", "RESULT": 0.9}
{"MOLECULE": "CC(C)(C)OC(=O)NCCCC(=O)Oc1ccc([N+](=O)[O-])cc1[N+](=O)[O-]", "RESULT": 1.0}
{"MOLECULE": "O=C(Oc1ccc([N+](=O)[O-])cc1[N+](=O)[O-])c1ccc(Oc2ccccc2)cc1 [fragment 39, 2,4-Dinitrophenyl 4-phenoxybenzoate]", "RESULT": 20.0}
{"MOLECULE": "O=C(CC12CC3CC(CC(C3)C1)C2)Oc1ccc([N+](=O)[O-])cc1[N+](=O)[O-]", "RESULT": 1.4}

----------
- STUDY TARGET: EEF2 Elongation factor 2 (Homo sapiens, UniProt P13639)
- Construct: isoTOP-ABPP experiments performed in cell lysates (in vitro); endogenous in cells; host or cells: soluble proteome of human cancer cell lines (MDA-MB-231; Ramos and Jurkat also prepared)
- ASSAY REMARKS: competitive isoTOP-ABPP
- Type: binding
- CONDITIONS: 50 uM, in vitro, sol, 231
MEASUREMENT LABEL: isoTOP-ABPP ratio (R) at liganded lysine P13639_K235

{"COMPOUND": "O=C(CC12CC3CC(CC(C3)C1)C2)Oc1ccc([N+](=O)[O-])cc1[N+](=O)[O-]", "RESULT": 0.9}
{"COMPOUND": "O=C(Oc1ccc([N+](=O)[O-])cc1[N+](=O)[O-])c1ccccc1Nc1cccc(C(F)(F)F)c1", "RESULT": 0.9}
{"COMPOUND": "O=C(Oc1ccc([N+](=O)[O-])cc1[N+](=O)[O-])c1ccc(-c2ccccc2)cc1", "RESULT": 1.0}
{"COMPOUND": "O=C(Oc1ccc([N+](=O)[O-])cc1[N+](=O)[O-])C1CCN(C(=O)OCc2ccccc2)CC1", "RESULT": 1.0}
{"COMPOUND": "CC(=O)Oc1ccc([N+](=O)[O-])cc1[N+](=O)[O-] [fragment 43, 2,4-Dinitrophenyl acetate]", "RESULT": 1.1}
{"COMPOUND": "O=C(Oc1ccc([N+](=O)[O-])cc1[N+](=O)[O-])C(c1ccccc1)(c1ccccc1)c1ccccc1 [fragment 42, 2,4-Dinitrophenyl 2,2,2-triphenylacetate]", "RESULT": 1.0}
{"COMPOUND": "O=C(CCc1coc2cc(F)ccc2c1=O)Oc1ccc([N+](=O)[O-])cc1[N+](=O)[O-]", "RESULT": 1.0}
{"COMPOUND": "CC(C)(C)OC(=O)NCCCC(=O)Oc1ccc([N+](=O)[O-])cc1[N+](=O)[O-]", "RESULT": 1.0}
{"COMPOUND": "O=C(Oc1ccc([N+](=O)[O-])cc1[N+](=O)[O-])c1ccc2ccccc2n1", "RESULT": 1.1}
{"COMPOUND": "O=C(Oc1ccc([N+](=O)[O-])cc1[N+](=O)[O-])c1ccc(Oc2ccccc2)cc1 [fragment 39, 2,4-Dinitrophenyl 4-phenoxybenzoate]", "RESULT": 0.9}

----------
Reported isoTOP-ABPP reactivity ratio at lysine P05141_K23 values for a set of compounds
- STUDY TARGET: SLC25A5 ADP/ATP translocase 2 (Homo sapiens, UniProt P05141)
- Construct: isoTOP-ABPP experiments performed in cell lysates (in vitro); endogenous in cells; host or cells: MDA-MB-231 soluble lysate
- Sequence (P05141 whole entry): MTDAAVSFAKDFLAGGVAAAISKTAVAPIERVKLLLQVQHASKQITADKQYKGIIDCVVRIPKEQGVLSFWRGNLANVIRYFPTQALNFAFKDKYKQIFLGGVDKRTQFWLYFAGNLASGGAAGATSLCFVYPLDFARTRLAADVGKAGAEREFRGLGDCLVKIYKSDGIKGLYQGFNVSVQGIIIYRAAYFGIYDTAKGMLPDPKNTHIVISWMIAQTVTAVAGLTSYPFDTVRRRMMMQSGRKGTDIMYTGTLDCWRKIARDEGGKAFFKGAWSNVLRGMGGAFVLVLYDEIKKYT
- ASSAY REMARKS: competitive isoTOP-ABPP
- Type: binding
- CONDITIONS: 50 uM, 231 sol, in vitro
MEASUREMENT LABEL: isoTOP-ABPP reactivity ratio at lysine P05141_K23

{"COMPOUND": "O=C(Oc1ccc([N+](=O)[O-])cc1[N+](=O)[O-])C(c1ccccc1)c1ccccc1 [fragment 30, 2,4-Dinitrophenyl 2,2-diphenylacetate]", "RESULT": 2.2}
{"COMPOUND": "Cn1cc(CC(=O)Oc2ccc([N+](=O)[O-])cc2[N+](=O)[O-])c2ccccc21", "RESULT": 1.8}
{"COMPOUND": "CCn1cc(C(=O)Oc2c(F)c(F)c(F)c(F)c2F)c(=O)c2ccc(C)nc21", "RESULT": 1.0}
{"COMPOUND": "O=C(Oc1ccc([N+](=O)[O-])cc1[N+](=O)[O-])c1cc(C(F)(F)F)cc(C(F)(F)F)c1", "RESULT": 1.5}
{"COMPOUND": "O=C(CCc1cn(-c2ccccc2)nc1-c1ccccc1)Oc1ccc([N+](=O)[O-])cc1[N+](=O)[O-]", "RESULT": 1.5}
